- Test system: OVCAR-3-derived ovarian cancer stem-like cells (spheroids)
- Assay remarks: cell growth relative to untreated control; higher = more growth (less inhibition)
- Experimental setup: 2.29 µM; 96 h
Experimental readout: cell growth (%)

>>> reported_measurement("O=C1C=C(Nc2ccccc2C(=O)CC(=O)C(=O)Nc2ccc(Cl)cc2)c2ccccc2C1=O")
49.4
>>> reported_measurement("Oc1[nH]c2ccccc2c1N=Nc1nc(-c2ccc(Br)cc2)cs1")
81.5
>>> reported_measurement("CN1C(Cl)=NS(=O)(=O)c2ccccc21")
99.9
>>> reported_measurement("Nc1ccc(N)c2c1C(=O)c1ccccc1C2=O")
97.9
>>> reported_measurement("COc1ccc2c(O)c3[n+](cc2c1OC)CCc1cc2c(cc1-3)OCO2")
103
>>> reported_measurement("CCC(C#N)(c1ccccc1)N(CCc1ccccc1)C(=O)c1ccccc1 (configuration not stated)")
129
>>> reported_measurement("CC(C)CC(NC(=O)OCc1ccccc1)C(=O)NC(Cc1ccccc1)C(=O)CCl (configuration not stated)")
92.9
>>> reported_measurement("C[C@H]1O[C@@H](c2ccc3c(c2O)C(=O)C2=C(C3=O)[C@@]3(O)C(=O)C[C@](C)(O)C[C@@]3(O)C=C2)C[C@@H](O)[C@@H]1O")
62.7
>>> reported_measurement("CC1=CC(=C(c2ccc(N)cc2)c2ccc(N)cc2)C=CC1=N")
50.4
>>> reported_measurement("CCCCCCCCCCCCCCCC[N+](C)(C)Cc1ccc(F)cc1")
54.1
>>> reported_measurement("CC1OC(CC(=O)O)CC2=C1C(=O)c1c(O)cccc1C2=O (configuration not stated)")
130
>>> reported_measurement("O=C1/C(=C\\c2ccc(Cl)c(Cl)c2)CN(C(=O)CCN2CCOCC2)C/C1=C\\c1ccc(Cl)c(Cl)c1")
63.5
>>> reported_measurement("COc1ccc(/C=C2\\N=C(c3ccccc3)OC2=O)c(OCc2ccccc2)c1")
69.7
>>> reported_measurement("Cc1ccc(NC(=O)c2cccc([N+](=O)[O-])c2O)c(C)c1")
110
>>> reported_measurement("Cc1cccc(Cl)c1NC(=O)/C=C/c1ccccc1")
102
>>> reported_measurement("CC1(C)C(O)OC(O)C1(C)C (configuration not stated)")
9.3
>>> reported_measurement("O=C(Nc1ccc2c(c1)oc(=O)c1ccccc12)C(Cl)Cl")
10.2
>>> reported_measurement("CCOC(=O)Cc1c(C)c2cc(C(=O)c3ccccc3)c(O)cc2oc1=O")
98
>>> reported_measurement("COC1OC(COCc2ccc(Cl)cc2)C(OCc2ccc(Cl)cc2)C1O (configuration not stated)")
110
>>> reported_measurement("CCCCOc1ccc(NC(N)=Nc2ccc(Cl)cc2)cc1")
124
>>> reported_measurement("CN=c1sc2c(n1C)C(=O)c1ccccc1C2=O")
83.2
>>> reported_measurement("COc1cc2c[n+](C)c3c4cc5c(cc4ccc3c2cc1OC)OCO5")
48.7

FYI, the data here is from the supplement of paper PMC3484114.
